Measurement Description: Antiproliferative activity against human A875 cells assessed as inhibition of cell growth incubated for 24 hrs by MTT reagent based ELISA
Assay type: functional
Condition Label: A875, 24 h
Endpoint: pIC50
Lab note: report pIC50 as minus log10 of the concentration in molar units, number only.

Req: # input molecule: CC(C)=CC[C@@H](OC(=O)Cc1ccc(Oc2ccccc2)cc1)C1=CC(=O)c2c(O)ccc(O)c2C1=O ; wanted: its pIC50
Resp: 5.91

* * *

System: SCC-4
Measurement Description: Cytotoxicity against human SCC-4 cells assessed as inhibition of cell growth incubated for 48 hrs by MTT reagent based spectrophotometric analysis
Assay type: functional
Condition Label: SCC-4, 48 h
Endpoint: IC50 (µM)
Entry rule: numbers only, all in µM.

Req: # input compound: COC(=O)N(Cc1ccccc1)C(C1=C(O)C(=O)c2ccccc2C1=O)c1ccc(Cl)cc1 (stereo unspecified) ; wanted: its IC50
Resp: 92.8

* * *

Test system: SK-MEL-28
Measurement Description: Cytotoxicity against human SK-MEL-28 cells incubated for 48 hrs by MTT assay
Assay type: functional, cell-based
Condition Label: SK-MEL-28, 48 h
Endpoint: IC50

Req: Hello, I am looking for reported IC50 with SK-MEL-28 for O=C1C(Cl)=C(NCCN2CCOCC2)C(=O)c2ccccc21 . Could you help?
Resp: 10.3 µM

* * *

Tested on: HeLa
Measurement Description: Antiproliferative activity against human HeLa cells assessed as inhibition of cell growth incubated for 48 hrs by MTT reagent based colorimetric assay
Type: functional
Endpoint: IC50 (µM)
Entry rule: numbers only, all in µM.

Req: Hello, I am looking for reported IC50 with HeLa for COc1cc(C2C3=C(Nc4cc5c(cc42)OCO5)C(=O)c2ccccc2C3=O)cc(OC)c1OC (stereo unspecified) . Could you help?
Resp: 26.8

* * *

Tested on: Huh-7
Measurement Description: Antiproliferative activity against human Huh-7 cells assessed as inhibition of cell growth incubated for 24 hrs by MTT assay
Type: functional, cell-based
Condition Label: Huh-7, 24 h
Endpoint: IC50 (µM)
Entry rule: numbers only, all in µM.

Req: # input compound: CCCCCCCC[S+]([O-])C1=CC(=O)c2ccccc2C1=O (stereo unspecified) ; wanted: its IC50
Resp: 1.96

* * *

Tested on: HeLa
Measurement Description: Antiproliferative activity against human HeLa cells assessed as inhibition of cell growth incubated for 48 hrs by MTS assay
Format: functional, cell-based
Endpoint: pIC50
Lab note: report pIC50 as minus log10 of the concentration in molar units, number only.

Req: # input compound: CN(C)C(=S)SCC1=C(CSC(=S)N(C)C)C(=O)c2ccccc2C1=O ; wanted: its pIC50
Resp: 6.91

* * *

Tested on: NCI-H460
Measurement Description: Antiproliferative activity against human NCI-H460 cells assessed as inhibition of cell growth incubated for 72 hrs by MTT assay
Assay type: functional, cell-based
Condition Label: NCI-H460, 72 h
Endpoint: IC50 (nM)
Entry rule: numbers only, all in nM.

Req: Hello, I am looking for reported IC50 with NCI-H460 for COc1ccc(N(Cc2cn(S(=O)(=O)c3ccc(C)cc3)nn2)C2=CC(=O)c3ccccc3C2=O)cc1 . Could you help?
Resp: 380

* * *

System: A549
Measurement Description: Antiproliferative activity against human A549 cells assessed as inhibition of cell growth incubated for 72 hrs by Sulforhodamine B assay
Assay type: functional, cell-based
Condition Label: A549, 72 h
Endpoint: pIC50
Lab note: report pIC50 as minus log10 of the concentration in molar units, number only.

Req: # input compound: CC(=O)OC[C@H]1O[C@H](n2cc(COC3=CC(=O)c4ccccc4C3=O)nn2)[C@H](OC(C)=O)[C@H](OC(C)=O)[C@H]1OC(C)=O ; wanted: its pIC50
Resp: 5.07
